B1: WDFY1 (parent)
chain: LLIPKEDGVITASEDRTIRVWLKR

variants of: B1; experiment: protein stability index of a GFP-peptide fusion (GPS, HEK-293T) (PSI 1-6); higher = more stable; settings: c terminus: a fixed tail appended;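 further: lentivirally expressed fusions sorted by FACS into six bins by GFP to DsRed ratio, PSI derived from sequencing read proportions per bin multiplied by bin number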

SEQUENCE | protein stability index
LLIPKEDGVFTASEDRTIRVWLKR [I10F] | 2.42
LLIPKEDGVITASEDETIRVWLKR [R16E] | 2.81
LLIPKEDGVITASEDRTIRVWLKI [R24I] | 3.32
LLIPKEDGVITASEDRTIRVWLKL [R24L] | 1.83
LLIPIEDGVITASEDRTIRVWLKR [K5I] | 2.28
LLIPKEDGVITASEDRTKRVWLKR [I18K] | 1.74
LLQPKEDGVITASEDRTIRVWLKR [I3Q] | 2.66
LLIPKEDGVITASEDRYIRVWLKR [T17Y] | 1.33
LLIPKEDGVITASCDRTIRVWLKR [E14C] | 2.41
LLIPKEDGVITASEDRTIRVWLKW [R24W] | 2.01
LLIPKEDDVITASEDRTIRVWLKR [G8D] | 2.27
LLIPKEDGVITASEDRTIRVHLKR [W21H] | 3.17
LLIPKEDGVIAASEDRTIRVWLKR [T11A] | 2.43
LLIPKEPGVITASEDRTIRVWLKR [D7P] | 1.66
RLIPKEDGVITASEDRTIRVWLKR [L1R] | 2.73
LLIPKEDGSITASEDRTIRVWLKR [V9S] | 2.74
LLIPKEDGVITASEDRTIRVQLKR [W21Q] | 4.25
LLIPKEDGVITASEDRTIRVWLKF [R24F] | 2.44
LLIPKEDGVITASECRTIRVWLKR [D15C] | 1.1
LLIPKEDGVITASEDRTIRVWLRR [K23R] | 2.74
LLIPKEDGVITASEDRTIREWLKR [V20E] | 1.73
LLIPKEDGPITASEDRTIRVWLKR [V9P] | 3.22
LLIPKEDGVITASEDRIIRVWLKR [T17I] | 1.61
LLIPKEDGVITAEEDRTIRVWLKR [S13E] | 1.5
LLIPKEDGVITASEDRTIRVWIKR [L22I] | 2.56
LLIPKEDGVITASEDRTIRVWLKP [R24P] | 2.07
LLIPKEYGVITASEDRTIRVWLKR [D7Y] | 1.3
LLIPKEDGVITASEDRTPRVWLKR [I18P] | 3.15
LLYPKEDGVITASEDRTIRVWLKR [I3Y] | 1.89
LLIPKEDGVITASEDRTIRVWLNR [K23N] | 2.63
HLIPKEDGVITASEDRTIRVWLKR [L1H] | 2.83
LLIPKEDGVITASEDRTIAVWLKR [R19A] | 2.03
LLIPKEDGVITASEDRTIRVWLGR [K23G] | 1.83
LLIPKEDGVIVASEDRTIRVWLKR [T11V] | 2.19
LLHPKEDGVITASEDRTIRVWLKR [I3H] | 2.45
LLIPKEDGVITASEQRTIRVWLKR [D15Q] | 2.32
LLNPKEDGVITASEDRTIRVWLKR [I3N] | 3.77
LLIPKELGVITASEDRTIRVWLKR [D7L] | 2.05
LLIPKEDGVITDSEDRTIRVWLKR [A12D] | 2.39
LLIPKEDGVITASEDRTQRVWLKR [I18Q] | 3.97
LLIPKCDGVITASEDRTIRVWLKR [E6C] | 2.67
LLIPKEDGVITASEDRQIRVWLKR [T17Q] | 2.02
LLIPKEDGVITASEDRTIRYWLKR [V20Y] | 1.87
LLIVKEDGVITASEDRTIRVWLKR [P4V] | 2.67
LDIPKEDGVITASEDRTIRVWLKR [L2D] | 3.47
LLIPKEDGVIKASEDRTIRVWLKR [T11K] | 2.03
LLIAKEDGVITASEDRTIRVWLKR [P4A] | 2.13
LLIPKEDGVITYSEDRTIRVWLKR [A12Y] | 2.66
LLIPKEDGVIPASEDRTIRVWLKR [T11P] | 2.65
LLIPSEDGVITASEDRTIRVWLKR [K5S] | 1.2
LLIPKEDGVITASEDLTIRVWLKR [R16L] | 2.22
LLIPKEDGVITASEDRTIEVWLKR [R19E] | 1.92
LLIPKEDGVITAMEDRTIRVWLKR [S13M] | 1.45
LKIPKEDGVITASEDRTIRVWLKR [L2K] | 3.31
LLIPKEDGVITASEDRTIRVWLHR [K23H] | 1.7
LLIPKEDGVITASEDRTHRVWLKR [I18H] | 2.34
LLIPKEDGVITASEDRTIRVWLKK [R24K] | 2.08
LLIPKEDGVITASEDRLIRVWLKR [T17L] | 1.82
LLIPKEDGVITASEDRFIRVWLKR [T17F] | 2.12
LGIPKEDGVITASEDRTIRVWLKR [L2G] | 2.37
LLIPKEDGVIMASEDRTIRVWLKR [T11M] | 1.5
LNIPKEDGVITASEDRTIRVWLKR [L2N] | 2.77
LLIPKEDGVKTASEDRTIRVWLKR [I10K] | 2.17
LLIPKEDGVITASEDRTIRVWLFR [K23F] | 3.36
LLTPKEDGVITASEDRTIRVWLKR [I3T] | 2.91
LLIPKEDGVITAHEDRTIRVWLKR [S13H] | 1.91
LLIPKEDGVITSSEDRTIRVWLKR [A12S] | 1.71
LLIPKNDGVITASEDRTIRVWLKR [E6N] | 2.58
LLIPKEDGWITASEDRTIRVWLKR [V9W] | 2.22
LLIPKEDGVDTASEDRTIRVWLKR [I10D] | 2.83
LLIPKEDGQITASEDRTIRVWLKR [V9Q] | 2.56
LLIPKEDGVATASEDRTIRVWLKR [I10A] | 2.4
LLIPKEDGNITASEDRTIRVWLKR [V9N] | 2.44
LLIPKEDGVITASEDRTIMVWLKR [R19M] | 2.44
